Data origin: ChEMBL document CHEMBL4706674

- Test system: Human immunodeficiency virus 1
- method.description: Antiviral activity against wild type HIV-1 NL4-3 infected in MT-2 cells assessed as inhibition of viral replication in presence of 10% of fetal bovine serum by luciferase reporter gene based multicycle replication assay
- Assay type: functional, organism-based
- conditions.used: Human immunodeficiency virus 1, NL4-3, MT2
Consider the following compounds and their measured EC50 readings.
experimental.endpoint: EC50

INSERT INTO assay_data (compound, experimental_endpoint, endpoint_value) VALUES
  ('C=C(C)[C@@H]1CC[C@]2(NCCN3CCS(=O)(=O)CC3)CC[C@]3(C)[C@H](CC[C@@H]4[C@@]5(C)CC=C(C6=CCC(C(=O)O)CC6)C(C)(C)[C@@H]5CC[C@]43C)[C@@H]12 (some centres undefined)', 'EC50', '0.6 nM'),
  ('C=C(C)[C@@H]1CC[C@]2(NCCN3CCS(=O)(=O)CC3)CC[C@]3(C)[C@H](CC[C@@H]4[C@@]5(C)CC=C(C6=CC[C@H](C(=O)O)CC6)C(C)(C)[C@@H]5CC[C@]43C)[C@@H]12', 'EC50', '1.3 nM'),
  ('C=C(C)[C@@H]1CC[C@]2(NCCN3CCS(=O)(=O)CC3)CC[C@]3(C)[C@H](CC[C@@H]4[C@@]5(C)CC=C(CCC(C)(C)CC(=O)O)C(C)(C)[C@@H]5CC[C@]43C)[C@@H]12', 'EC50', '1.3 nM'),
  ('C=C(C)[C@@H]1CC[C@]2(NCCN3CCS(=O)(=O)CC3)CC[C@]3(C)[C@H](CC[C@@H]4[C@@]5(C)CC=C(CCCC(C)(C)C(=O)O)C(C)(C)[C@@H]5CC[C@]43C)[C@@H]12', 'EC50', '5.3 nM');

====

- Test system: Human immunodeficiency virus 1
- method.description: Antiviral activity against wild type HIV-1 NL4-3 harbouring Gag A364V mutant infected in MT-2 cells assessed as inhibition of viral replication in presence of 10% of fetal bovine serum by luciferase reporter gene based multicycle replication assay
- Format: functional, organism-based
- conditions.used: Human immunodeficiency virus 1, NL4-3, MT2
// EC50 lookup, one value per entry
experimental.endpoint: EC50 (nM)

INSERT INTO results (molecule, measurement_target, value_units, endpoint_value) VALUES
  ('C=C(C)[C@@H]1CC[C@]2(NCCN3CCS(=O)(=O)CC3)CC[C@]3(C)[C@H](CC[C@@H]4[C@@]5(C)CC=C(CC6CCC(C(=O)O)CC6)C(C)(C)[C@@H]5CC[C@]43C)[C@@H]12 (stereo partly drawn)', 'Human immunodeficiency virus 1', 'nM', 1850),
  ('C=C(C)[C@@H]1CC[C@]2(NCCN3CCS(=O)(=O)CC3)CC[C@]3(C)[C@H](CC[C@@H]4[C@@]5(C)CC=C(CCC(C)(C)CC(=O)O)C(C)(C)[C@@H]5CC[C@]43C)[C@@H]12', 'Human immunodeficiency virus 1', 'nM', 1290),
  ('C=C(C)[C@@H]1CC[C@]2(NCCN3CCC(S(C)(=O)=O)CC3)CC[C@]3(C)[C@H](CC[C@@H]4[C@@]5(C)CC=C(C6=CC[C@@H](C(=O)O)CC6)C(C)(C)[C@@H]5CC[C@]43C)[C@@H]12', 'Human immunodeficiency virus 1', 'nM', 1800);

====

- method.description: Metabolic stability in human liver microsomes assessed as half life
- Assay type: ADME, Microsome
- conditions.used: time 2 min
experimental.endpoint: half-life

INSERT INTO assay_data (molecule, endpoint_value) VALUES
  ('C=C(C)[C@@H]1CC[C@]2(C(=O)O)CC[C@]3(C)[C@H](CC[C@@H]4[C@@]5(C)CC[C@H](OC(=O)CC(C)(C)C(=O)O)C(C)(C)[C@@H]5CC[C@]43C)[C@@H]12 [BEVIRIMAT]', '> 2 h'),
  ('C=C(C)[C@@H]1CC[C@]2(C(=O)O)CC[C@]3(C)[C@H](CC[C@@H]4[C@@]5(C)CC=C(c6ccc(C(=O)O)cc6)C(C)(C)[C@@H]5CC[C@]43C)[C@@H]12', '> 2 h'),
  ('C=C(C)[C@@H]1CC[C@]2(NCCN3CCS(=O)(=O)CC3)CC[C@]3(C)[C@H](CC[C@@H]4[C@@]5(C)CC=C(C6=CC[C@@H](C(=O)O)CC6)C(C)(C)[C@@H]5CC[C@]43C)[C@@H]12', '0.967 h'),
  ('C=C(C)[C@@H]1CC[C@]2(NCCN3CCS(=O)(=O)CC3)CC[C@]3(C)[C@H](CC[C@@H]4[C@@]5(C)CC=C(C6=CC7(C6)CC(C(=O)O)C7)C(C)(C)[C@@H]5CC[C@]43C)[C@@H]12 (stereo not given in full)', '1.15 h'),
  ('C=C(C)[C@@H]1CC[C@]2(NCCN3CCS(=O)(=O)CC3)CC[C@]3(C)[C@H](CC[C@@H]4[C@@]5(C)CC=C(c6ccc(C(=O)O)cc6)C(C)(C)[C@@H]5CC[C@]43C)[C@@H]12 [BMS-955176]', '> 2 h');
